# Test system: UO-31 renal
# runDescription: NCI tumour cell line growth inhibition, 48 h
Task for the reader: assign each of the following compounds its reported TGI.
One number for each entry, in µM.

Here is how some compounds turned out for TGI.
* CCc1ccc2[nH]c(O)c(C3=Nc4ccccc4C3=O)c2c1 | 37.9
* COC(=O)c1c(CC(Cc2ccc3c(c2)CCCC3)C(=O)O)ccc2c1CCCC2 (stereo unspecified) | 62.3
* CC(/C=C/C(O)=C1/C(=O)CNC1=O)=C\[C@@H](C)[C@H]1O[C@@]2(C)O[C@H](C(=O)[C@@H]3O[C@@]32C)[C@@H]1C | 33.2
* C=C(CN1CCc2c([nH]c3ccccc23)C1)c1ccc(C(=O)Nc2ccccc2N)cc1 | 9.89
* COc1ccc(-c2nc(-c3nc4cc(Cl)c(F)cc4[nH]3)c3ccccn23)cc1 | 35.7

Item: `O=C1NC(Nc2ccccc2)=N/C1=C\c1c(Cl)cccc1Cl` | TGI: 18.4

---

Task for the reader: assign each of the following compounds its reported TGI.
# Tested on: MOLT-4 leukemia
# runDescription: NCI tumour cell line growth inhibition, 48 h

• O=c1oc(-c2ccc(O)cc2)cc2cc(O)ccc12 = 69.2 µM
• CN(Cc1ccc(F)cc1)c1ccc(CO)c(Cl)c1 = 69.3 µM
• C=C1C(=O)O[C@H]2[C@H]1CC/C(COC(=O)N[C@H]1C[C@H](O[C@H]3C[C@](O)(C(=O)CO)Cc4c(O)c5c(c(O)c43)C(=O)c3c(OC)cccc3C5=O)O[C@@H](C)[C@H]1O)=C\CC[C@@]1(C)O[C@@H]21 = 2.83 µM

Your task in this section: give TGI for each listed record.
1. O=C(N/N=C\c1cccc2ccccc12)Nc1ccccc1
2. CC(C)(C)OC(=O)N1NC(c2ccccc2)CC1c1ccccc1 (configuration not stated)

Completion:
> 100 µM
> 100 µM

Your task in this section: give TGI for each listed record.
1. CC(=O)/C=C/c1ccc(Nc2c3ccccc3nc3occ(Cl)c23)cc1
2. c1ccc(-c2nc3n(c2-c2ccc4c(c2)OCO4)CCC3)nc1
3. CC(=O)C(C(=O)c1ccc(C)cc1)[C@H]1OC(C)(C)O[C@H]1[C@H]1COC(C)(C)O1 (some centres not stated)
4. Clc1ccccc1CN1COc2c(ccc3cccnc23)C1
5. COc1cc(-c2ccc(N=Nc3ccc4c(S(=O)(=O)O)cc(S(=O)(=O)O)c(N)c4c3O)c(OC)c2)ccc1N=Nc1ccc2c(S(=O)(=O)O)cc(S(=O)(=O)O)c(N)c2c1O
6. CCCCCCCCCc1ccc(OCCOCCOCCOCCOCCOCCOCCOCCOCCO)cc1
7. Cc1cc(N/N=C/c2nc(-c3ccc(Cl)cc3)oc2C)c2cc(Br)ccc2n1

Completion:
["13.3 µM", "> 21.4 µM", "> 50 µM", "6.77 µM", "> 100 µM", "2.15 µM", "13.5 µM"]

---

# Test system: DU-145 prostate
# runDescription: NCI tumour cell line growth inhibition, 48 h
measuredQuantity: TGI

Here is how some compounds turned out for TGI.
- FC(F)(F)c1ccc2c(c1)nc1n2C(c2c(Cl)cccc2Cl)SC1 (centres undefined): 56.1 µM
- O=c1[nH]nc(-c2ccccc2)n1/N=C/c1ccccc1O: > 100 µM
- CCN1[C@@H](C(=O)NC23CCC(C(=O)O)(CC2)CC3)[C@H](c2cccc(Cl)c2F)[C@]2(C(=O)Nc3cc(Cl)ccc32)C12CCCCC2: 18.5 µM
- Cc1cc(NCc2cc(Nc3ccnc4cc(Cl)ccc34)ccc2F)nc(N2CCOCC2)n1: 12.5 µM
- C=C1C(=O)O[C@H]2[C@H]1CC/C(COC(=O)NCc1ccc(Cn3c(=O)sn(CCCCC)c3=O)cc1)=C\CC[C@@]1(C)O[C@@H]21: 3.04 µM
- COc1ccc(/C=C2\C[C@H]3[C@@H]4CCC5=C/C(=N/O)CC[C@]5(C)[C@H]4CC[C@]3(C)\C2=N\O)cc1: > 100 µM
- CN=C(Nc1ccc(OC)c2ccccc12)SC: > 10 µM
- N#Cc1c(=O)c2ccccc2n2ccccc12: > 100 µM

The reported DU-145 prostate TGI of Cc1ccc(O)c(C2=CC3=NNC(=O)C3C(c3cccc(Cl)c3)C2)c1 (centres undefined) is > 100 µM

Origin of values: PubChem BioAssay (NCI)
